A short record of pIC50 observed with PI3KC2B (Homo sapiens, UniProt O00750) follows.
Sequence (O00750 whole entry): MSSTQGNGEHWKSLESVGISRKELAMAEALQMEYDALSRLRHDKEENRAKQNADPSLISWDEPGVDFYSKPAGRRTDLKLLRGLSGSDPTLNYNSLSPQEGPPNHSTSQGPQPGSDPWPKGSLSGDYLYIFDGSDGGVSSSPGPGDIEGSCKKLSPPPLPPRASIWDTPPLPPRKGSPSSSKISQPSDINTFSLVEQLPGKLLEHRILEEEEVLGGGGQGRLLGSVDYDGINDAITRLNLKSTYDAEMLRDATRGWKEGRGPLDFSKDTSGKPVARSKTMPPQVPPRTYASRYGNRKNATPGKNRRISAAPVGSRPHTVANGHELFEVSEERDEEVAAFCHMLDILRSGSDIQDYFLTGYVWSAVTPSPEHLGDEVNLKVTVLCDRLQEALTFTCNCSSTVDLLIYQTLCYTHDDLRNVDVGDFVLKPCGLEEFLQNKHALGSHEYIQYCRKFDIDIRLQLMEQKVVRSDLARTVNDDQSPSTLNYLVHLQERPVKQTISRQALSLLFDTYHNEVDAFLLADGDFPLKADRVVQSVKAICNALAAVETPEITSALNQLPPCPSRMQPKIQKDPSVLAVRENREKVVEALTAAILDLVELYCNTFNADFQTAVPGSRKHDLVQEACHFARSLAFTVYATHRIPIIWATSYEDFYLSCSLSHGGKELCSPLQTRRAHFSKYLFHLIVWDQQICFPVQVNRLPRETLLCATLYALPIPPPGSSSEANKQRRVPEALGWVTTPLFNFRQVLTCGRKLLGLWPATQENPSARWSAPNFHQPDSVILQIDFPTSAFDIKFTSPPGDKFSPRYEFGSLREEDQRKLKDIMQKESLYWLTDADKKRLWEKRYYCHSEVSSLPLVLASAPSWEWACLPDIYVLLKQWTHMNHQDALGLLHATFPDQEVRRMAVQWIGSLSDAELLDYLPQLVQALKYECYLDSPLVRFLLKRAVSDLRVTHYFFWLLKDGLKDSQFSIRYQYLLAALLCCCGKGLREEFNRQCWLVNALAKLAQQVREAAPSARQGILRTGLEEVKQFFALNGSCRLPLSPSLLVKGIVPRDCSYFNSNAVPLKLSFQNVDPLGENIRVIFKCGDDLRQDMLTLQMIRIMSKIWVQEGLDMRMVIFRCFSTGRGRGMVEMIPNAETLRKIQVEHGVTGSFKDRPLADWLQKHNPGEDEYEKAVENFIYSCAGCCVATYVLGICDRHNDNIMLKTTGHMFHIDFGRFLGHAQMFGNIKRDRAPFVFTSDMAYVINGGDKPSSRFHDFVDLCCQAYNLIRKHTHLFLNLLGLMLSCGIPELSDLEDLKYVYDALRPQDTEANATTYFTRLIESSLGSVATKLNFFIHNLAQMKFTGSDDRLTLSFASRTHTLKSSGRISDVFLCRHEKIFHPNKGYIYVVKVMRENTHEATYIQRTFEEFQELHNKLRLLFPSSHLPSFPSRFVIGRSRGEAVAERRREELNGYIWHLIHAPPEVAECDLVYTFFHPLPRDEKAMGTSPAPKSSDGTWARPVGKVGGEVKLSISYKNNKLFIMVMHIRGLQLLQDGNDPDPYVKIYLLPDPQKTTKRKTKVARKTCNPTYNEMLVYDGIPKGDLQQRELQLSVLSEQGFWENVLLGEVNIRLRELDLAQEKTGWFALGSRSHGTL
pIC50: −log10 of the molar value.
measured.quantity: pIC50

* COc1ccc(-c2sc(NC(=O)CCC3CCCC3)nc2C)cc1S(=O)(=O)NC1CCNCC1 | < 5.00
* COc1ccc(-c2sc(NC(C)(C)C)nc2C)cc1S(=O)(=O)N[C@H]1CC[C@H](O)CC1 | < 5.00
* COc1ccc(-c2sc(N[C@H](C)C3CCCCC3)nc2C)cc1S(=O)(=O)N[C@H]1CC[C@H](O)CC1 | < 5.00
* COc1ccc(-c2sc(NC(=O)CC3CCCC3)nc2C)cc1S(=O)(=O)Nc1ccc(O)cc1 | < 5.00
* COc1ccc(-c2sc(NC(C)C)nc2C)cc1S(=O)(=O)N[C@H]1CC[C@H](O)CC1 | < 5.00
* COc1ccc(-c2sc(NC(=O)CC3CCOCC3)nc2C)cc1S(=O)(=O)Nc1ccc(O)cc1 | < 5.00

###

# Test system: Ebola
# test.details: microbe, parasite or virus in culture
# Assay type: cell-based
# protocol.conditions: Zaire ebolavirus, read-out: Ebola EC50
pEC50: −log10 of the molar value.
measured.quantity: pEC50

• COc1ccc(-c2sc(NC(=O)CC3CCOCC3)nc2C)cc1S(=O)(=O)Nc1ccc(O)cc1 = 6.00 to 7.00
• COc1ccc(-c2sc(NCC3CCCCC3)nc2C)cc1S(=O)(=O)Nc1cccc(C(C)(C)C)c1 = 5.00 to 6.00

###

A short record of IC50 observed with PI3KC2G (Homo sapiens) follows.
Sequence (O75747 whole entry): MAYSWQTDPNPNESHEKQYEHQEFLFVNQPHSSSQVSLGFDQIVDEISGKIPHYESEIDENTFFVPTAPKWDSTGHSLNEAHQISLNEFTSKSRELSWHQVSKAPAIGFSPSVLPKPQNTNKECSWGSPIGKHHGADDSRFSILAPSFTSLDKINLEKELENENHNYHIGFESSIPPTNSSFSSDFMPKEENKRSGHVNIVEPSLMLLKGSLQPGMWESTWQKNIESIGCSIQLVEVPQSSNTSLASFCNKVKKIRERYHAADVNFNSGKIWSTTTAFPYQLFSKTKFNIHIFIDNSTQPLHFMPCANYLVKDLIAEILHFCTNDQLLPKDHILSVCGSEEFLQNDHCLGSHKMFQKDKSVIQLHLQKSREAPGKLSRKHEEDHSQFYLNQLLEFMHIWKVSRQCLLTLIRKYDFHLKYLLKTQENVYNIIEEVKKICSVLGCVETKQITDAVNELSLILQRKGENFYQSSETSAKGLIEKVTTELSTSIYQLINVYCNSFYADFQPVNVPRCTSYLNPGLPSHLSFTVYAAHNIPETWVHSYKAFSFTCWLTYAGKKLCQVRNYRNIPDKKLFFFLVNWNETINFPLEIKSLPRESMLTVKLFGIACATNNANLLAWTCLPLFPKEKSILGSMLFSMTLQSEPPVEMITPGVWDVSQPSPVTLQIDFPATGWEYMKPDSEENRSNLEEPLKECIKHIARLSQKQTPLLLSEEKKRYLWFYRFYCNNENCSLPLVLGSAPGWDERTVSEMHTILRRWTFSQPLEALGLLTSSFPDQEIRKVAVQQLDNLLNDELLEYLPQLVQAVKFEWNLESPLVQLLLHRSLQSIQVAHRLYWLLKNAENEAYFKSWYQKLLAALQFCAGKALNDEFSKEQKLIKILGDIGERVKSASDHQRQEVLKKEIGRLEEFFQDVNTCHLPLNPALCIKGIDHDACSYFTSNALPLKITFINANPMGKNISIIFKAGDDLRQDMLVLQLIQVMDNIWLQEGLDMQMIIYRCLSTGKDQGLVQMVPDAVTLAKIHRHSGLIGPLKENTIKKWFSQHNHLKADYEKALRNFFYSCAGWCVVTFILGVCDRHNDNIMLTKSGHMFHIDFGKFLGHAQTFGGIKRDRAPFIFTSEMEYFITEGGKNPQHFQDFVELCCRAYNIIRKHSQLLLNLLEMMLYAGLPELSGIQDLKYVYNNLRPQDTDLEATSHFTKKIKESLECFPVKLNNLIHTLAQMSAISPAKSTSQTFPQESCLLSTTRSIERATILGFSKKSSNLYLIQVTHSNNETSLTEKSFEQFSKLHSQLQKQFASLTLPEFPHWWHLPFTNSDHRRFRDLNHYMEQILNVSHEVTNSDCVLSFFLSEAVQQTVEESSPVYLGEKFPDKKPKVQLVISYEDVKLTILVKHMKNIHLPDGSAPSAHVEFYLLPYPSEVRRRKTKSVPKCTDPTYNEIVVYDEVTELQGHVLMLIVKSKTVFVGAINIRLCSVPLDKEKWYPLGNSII
measured.quantity: IC50

* COc1ncc(-c2sc(NC(=O)CC3CCOCC3)nc2C)cc1S(=O)(=O)NC1CCCC(O)C1 (centres unmarked) [Compound S-263] | 0.1 to 1 µM
* COc1ccc(-c2sc(NCCC3CCCCC3)nc2C)cc1S(=O)(=O)NC1CCC(O)C1 (centres unmarked) [Compound S-214] | > 10 µM

###

# target: PI3K p110g (Homo sapiens, UniProt P48736)
# Sequence (P48736 whole entry): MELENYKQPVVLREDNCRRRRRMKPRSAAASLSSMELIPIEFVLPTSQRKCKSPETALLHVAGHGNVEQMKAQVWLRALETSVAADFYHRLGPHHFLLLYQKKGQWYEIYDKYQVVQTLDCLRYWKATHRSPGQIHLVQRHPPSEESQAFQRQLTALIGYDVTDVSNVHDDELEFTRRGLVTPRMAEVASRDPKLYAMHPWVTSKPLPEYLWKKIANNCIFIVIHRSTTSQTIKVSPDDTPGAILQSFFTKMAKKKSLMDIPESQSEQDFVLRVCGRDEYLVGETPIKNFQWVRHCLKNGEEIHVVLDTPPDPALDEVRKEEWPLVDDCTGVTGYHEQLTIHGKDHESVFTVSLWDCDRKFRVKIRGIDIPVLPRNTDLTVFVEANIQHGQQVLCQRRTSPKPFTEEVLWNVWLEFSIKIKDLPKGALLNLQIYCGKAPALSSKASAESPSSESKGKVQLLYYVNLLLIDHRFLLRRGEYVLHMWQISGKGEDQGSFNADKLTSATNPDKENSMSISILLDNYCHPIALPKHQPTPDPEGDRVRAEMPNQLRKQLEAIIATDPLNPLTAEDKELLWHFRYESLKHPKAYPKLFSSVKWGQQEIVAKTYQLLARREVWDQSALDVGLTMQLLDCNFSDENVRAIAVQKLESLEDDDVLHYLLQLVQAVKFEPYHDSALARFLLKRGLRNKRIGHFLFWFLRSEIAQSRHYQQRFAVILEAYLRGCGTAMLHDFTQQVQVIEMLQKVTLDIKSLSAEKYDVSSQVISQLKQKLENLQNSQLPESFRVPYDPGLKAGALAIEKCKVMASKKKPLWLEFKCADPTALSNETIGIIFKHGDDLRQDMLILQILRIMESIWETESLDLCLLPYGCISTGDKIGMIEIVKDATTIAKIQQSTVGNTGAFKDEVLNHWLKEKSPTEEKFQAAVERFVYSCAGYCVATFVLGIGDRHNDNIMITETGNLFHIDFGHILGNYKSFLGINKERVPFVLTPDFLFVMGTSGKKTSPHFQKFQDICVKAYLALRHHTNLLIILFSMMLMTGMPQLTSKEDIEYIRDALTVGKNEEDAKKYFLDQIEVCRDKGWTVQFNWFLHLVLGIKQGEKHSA
measured.quantity: IC50

* COc1ccc(-c2sc(N[C@H](C)C3CCCCC3)nc2C)cc1S(=O)(=O)NC1CCNCC1 [Compound S-147] | > 10 µM
* COc1ccc(-c2sc(NC(C)(C)C)nc2C)cc1S(=O)(=O)N[C@H]1CC[C@H](O)CC1 [Compound S-216] | > 10 µM
* COc1ncc(-c2sc(NC(=O)CC3CCOCC3)nc2C)cc1S(=O)(=O)Nc1ccc(O)cc1 [Compound S-261] | 0.1 to 1 µM
* COc1ccc(-c2sc(NC(=O)CC3CCCC3)nc2C)cc1S(=O)(=O)Nc1ccc(O)cc1 [Compound S-1] | > 10 µM
* COc1ncc(-c2sc(NC(=O)CC3CCOCC3)nc2C)cc1S(=O)(=O)NC1CCCC(O)C1 (centres unmarked) [Compound S-263] | 1 to 10 µM
* COc1ccc(-c2sc(NC3CCCCCC3)nc2C)cc1S(=O)(=O)Nc1c(C)cccc1C [Compound S-98] | > 10 µM
* COc1ncc(-c2sc(NC(=O)CC3CCOCC3)nc2C)cc1S(=O)(=O)Nc1ccc(F)cc1F [Compound S-260] | > 10 µM
* COc1ccc(-c2sc(NC(=O)CC3CCOCC3)nc2C)cc1S(=O)(=O)Nc1ccc(O)cc1 [Compound S-227] | > 10 µM
* COc1ccc(-c2sc(NCCC3CCCCC3)nc2C)cc1S(=O)(=O)NC1CCC(O)C1 (centres unmarked) [Compound S-214] | > 10 µM
* COc1ncc(-c2sc(NC(=O)CC3CCOCC3)nc2C)cc1S(=O)(=O)Nc1cccc(C(=O)O)c1 [Compound S-265] | > 10 µM
* COc1ccc(-c2sc(NCC3CCCCC3)nc2C)cc1S(=O)(=O)NCC1CCCCC1 [Compound S-128] | > 10 µM
